Lab note: IC50 readings collected with PI3Kalpha (Homo sapiens (Human)) for the following compounds.
measure: IC50 (nM)

(I) CCNC(=O)Nc1ccc2ncc(Nc3ccc(O)cc3)nc2n1 [Compound 164]
(II) O=C(NCCCCO)Nc1ccc2ncc(-c3ccccc3)nc2n1 [Compound 146]
Given the listed records, identify the one among I and II with higher IC50. Record your answer as the label of the chosen record.
II

(A) CCNC(=O)Nc1ccc2ncc(Nc3ccn(C)n3)nc2n1 [Compound 166]
(B) CCNC(=O)Nc1ccc2ncc(-c3cccc(C(N)=O)c3)nc2n1 [Compound 155]
Input pair: A , B . Output: entry with lower IC50. Select an item and report its label.
A
(A: 1300 nM, B: 5000 nM)

====

Target or system Erk2 (Homo sapiens): recorded pIC50 listed per item.
pIC50: −log10 of the molar value.

| smilesStructure | reading |
| --- | --- |
| CCNC(=O)Nc1ccc2ncc(Nc3ccc(CC)cc3)nc2n1 | < 4.00 |
| CCNC(=O)Nc1ccc2ncc(Nc3cccc(C)c3)nc2n1 | < 4.00 |

Please supply the value of reported pIC50 for the item CCNC(=O)Nc1ccc2ncc(Nc3ccc(Cl)cc3)nc2n1
< 4.00

====

# Tested on: Jnk1 + Jnk2
# assayProtocol: Cell-free kinase assay (ALPHA technology), Jnk1 + Jnk2
# Assay type: biochemical, human
# details: 10 μM ATP
pIC50: −log10 of the molar value.
measure: pIC50

| compound | pIC50 |
| --- | --- |
| CCNC(=O)Nc1ccc2ncc(Nc3ccc(OC)c(OC)c3)nc2n1 [Compound 187] | < 4.00 |
| CCN(C(C)=O)C(=O)Nc1ccc2ncc(-c3ccccc3)nc2n1 [Compound 46] | < 4.00 |

Please report pIC50 for the following compound: CCNC(=O)Nc1ccc2ncc(Nc3ccc(C)c(O)c3)nc2n1 [Compound 188]
< 4.50

Output pIC50 of CCNC(=O)Nc1ccc2ncc(Nc3ccc(OC)cc3)nc2n1 [Compound 158]
< 4.50

====

# studyTarget: PI3Kalpha (Homo sapiens (Human), UniProt P42336)
# Sequence (P42336 whole entry): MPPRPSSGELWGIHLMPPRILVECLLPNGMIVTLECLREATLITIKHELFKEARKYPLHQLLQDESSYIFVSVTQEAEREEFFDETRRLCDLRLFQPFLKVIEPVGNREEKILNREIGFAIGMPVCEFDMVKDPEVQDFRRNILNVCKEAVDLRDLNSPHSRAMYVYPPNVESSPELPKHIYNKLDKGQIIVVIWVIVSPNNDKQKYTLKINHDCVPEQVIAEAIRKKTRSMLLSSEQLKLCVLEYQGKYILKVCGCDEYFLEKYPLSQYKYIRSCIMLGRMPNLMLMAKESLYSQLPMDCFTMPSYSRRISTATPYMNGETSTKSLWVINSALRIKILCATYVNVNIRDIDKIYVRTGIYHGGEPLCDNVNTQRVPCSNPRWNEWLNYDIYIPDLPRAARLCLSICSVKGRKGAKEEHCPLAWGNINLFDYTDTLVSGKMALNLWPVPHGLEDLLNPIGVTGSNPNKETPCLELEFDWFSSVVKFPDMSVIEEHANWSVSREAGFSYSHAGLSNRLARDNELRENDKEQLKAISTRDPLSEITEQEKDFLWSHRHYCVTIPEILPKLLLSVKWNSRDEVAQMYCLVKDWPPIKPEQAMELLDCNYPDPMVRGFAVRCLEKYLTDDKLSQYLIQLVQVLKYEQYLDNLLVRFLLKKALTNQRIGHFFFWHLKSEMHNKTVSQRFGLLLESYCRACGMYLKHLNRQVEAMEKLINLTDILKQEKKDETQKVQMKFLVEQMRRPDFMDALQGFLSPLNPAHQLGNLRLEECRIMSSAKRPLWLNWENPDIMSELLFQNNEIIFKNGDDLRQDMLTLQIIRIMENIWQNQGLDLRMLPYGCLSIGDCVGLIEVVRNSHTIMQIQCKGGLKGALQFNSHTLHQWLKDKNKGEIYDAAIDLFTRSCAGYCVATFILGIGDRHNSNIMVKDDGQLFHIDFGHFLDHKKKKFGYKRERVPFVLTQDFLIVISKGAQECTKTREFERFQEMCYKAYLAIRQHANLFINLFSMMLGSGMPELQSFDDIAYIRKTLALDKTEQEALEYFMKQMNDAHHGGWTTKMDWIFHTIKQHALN
# Sequence (P27986 whole entry partner): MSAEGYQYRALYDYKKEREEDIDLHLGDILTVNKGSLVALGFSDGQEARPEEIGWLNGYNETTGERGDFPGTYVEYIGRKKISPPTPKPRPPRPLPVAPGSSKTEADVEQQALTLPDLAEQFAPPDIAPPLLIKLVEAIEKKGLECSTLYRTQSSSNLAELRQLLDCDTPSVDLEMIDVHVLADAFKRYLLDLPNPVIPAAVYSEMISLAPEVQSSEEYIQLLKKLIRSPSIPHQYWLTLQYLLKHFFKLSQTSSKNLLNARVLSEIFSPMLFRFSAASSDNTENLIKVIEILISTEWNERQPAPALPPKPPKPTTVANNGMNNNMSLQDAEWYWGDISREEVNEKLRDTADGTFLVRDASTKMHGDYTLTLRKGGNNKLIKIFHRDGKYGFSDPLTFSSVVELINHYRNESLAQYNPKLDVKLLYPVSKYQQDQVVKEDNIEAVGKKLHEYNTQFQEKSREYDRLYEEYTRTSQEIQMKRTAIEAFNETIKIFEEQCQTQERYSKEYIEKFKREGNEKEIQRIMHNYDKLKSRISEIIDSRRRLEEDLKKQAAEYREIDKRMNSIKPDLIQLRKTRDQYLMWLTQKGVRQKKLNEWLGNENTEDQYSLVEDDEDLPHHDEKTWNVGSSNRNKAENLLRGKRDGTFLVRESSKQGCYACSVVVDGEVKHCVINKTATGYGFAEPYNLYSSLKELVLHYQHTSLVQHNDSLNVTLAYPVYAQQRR
pIC50: −log10 of the molar value.
measure: pIC50

| smilesStructure | pIC50 |
| --- | --- |
| CCNC(=O)Nc1ccc2ncc(Nc3ccc(Cl)cc3)nc2n1 | 6.83 |
| CCNC(=O)Nc1ccc2ncc(Nc3ccc(C)cn3)nc2n1 | 5.92 |
| CCNC(=O)Nc1ccc2ncc(-c3ccc(N)cc3)nc2n1 | 5.19 |
| CCNC(=O)Nc1ccc2ncc(-c3c(C)n[nH]c3C)nc2n1 | 5.40 |
| CCNC(=O)Nc1ccc2ncc(-c3ccc(OP(=O)(O)O)c(OC)c3)nc2n1 | 5.43 |

(I) CCNC(=O)Nc1ccc2ncc(Nc3ccc(C)c(OC)c3)nc2n1
(II) CNC(=S)Nc1ccc2ncc(-c3ccc(N)cc3)nc2n1
(III) C=CCNC(=O)Nc1ccc2ncc(-c3ccc(O)cc3)nc2n1
(IV) CCNC(=O)Nc1ccc2ncc(-c3cnn(C)c3)nc2n1
Hey, quick one: sort these by pIC50, low to high? The response must list the labels following the requested ordering.
II, IV, III, I
(II: 5.42, IV: 5.62, III: 5.82, I: 7.02)

====

Listing of entries alongside the reported pIC50.
# Test system: Jnk1 + Jnk2
# assayProtocol: Cell-free kinase assay (ALPHA technology), Jnk1 + Jnk2
# Type: biochemical, human
# details: 10 μM ATP
pIC50: −log10 of the molar value.

| smilesStructure | pIC50 |
| --- | --- |
| CCNC(=O)Nc1ccc2ncc(Nc3ccc(C)cc3)nc2n1 | < 4.00 |
| CCNC(=O)Nc1ccc2ncc(Nc3ccc(C)c(OC)c3)nc2n1 | < 4.50 |

Okay, next one:
Answer with the recorded pIC50 for the compound listed here: CCNC(=O)Nc1ccc2ncc(Nc3ccccc3C)nc2n1
< 4.50
